molecular target: PI3Kα (Homo sapiens (Human), UniProt P42336); assay: Inhibition of PI3Kα efficacy assay (ADP-Glo kinase assay); assay type: biochemical; settings: Table 2; read-out: PI3Kα inhibitory activity (IC50)
Sequence (P42336 whole entry): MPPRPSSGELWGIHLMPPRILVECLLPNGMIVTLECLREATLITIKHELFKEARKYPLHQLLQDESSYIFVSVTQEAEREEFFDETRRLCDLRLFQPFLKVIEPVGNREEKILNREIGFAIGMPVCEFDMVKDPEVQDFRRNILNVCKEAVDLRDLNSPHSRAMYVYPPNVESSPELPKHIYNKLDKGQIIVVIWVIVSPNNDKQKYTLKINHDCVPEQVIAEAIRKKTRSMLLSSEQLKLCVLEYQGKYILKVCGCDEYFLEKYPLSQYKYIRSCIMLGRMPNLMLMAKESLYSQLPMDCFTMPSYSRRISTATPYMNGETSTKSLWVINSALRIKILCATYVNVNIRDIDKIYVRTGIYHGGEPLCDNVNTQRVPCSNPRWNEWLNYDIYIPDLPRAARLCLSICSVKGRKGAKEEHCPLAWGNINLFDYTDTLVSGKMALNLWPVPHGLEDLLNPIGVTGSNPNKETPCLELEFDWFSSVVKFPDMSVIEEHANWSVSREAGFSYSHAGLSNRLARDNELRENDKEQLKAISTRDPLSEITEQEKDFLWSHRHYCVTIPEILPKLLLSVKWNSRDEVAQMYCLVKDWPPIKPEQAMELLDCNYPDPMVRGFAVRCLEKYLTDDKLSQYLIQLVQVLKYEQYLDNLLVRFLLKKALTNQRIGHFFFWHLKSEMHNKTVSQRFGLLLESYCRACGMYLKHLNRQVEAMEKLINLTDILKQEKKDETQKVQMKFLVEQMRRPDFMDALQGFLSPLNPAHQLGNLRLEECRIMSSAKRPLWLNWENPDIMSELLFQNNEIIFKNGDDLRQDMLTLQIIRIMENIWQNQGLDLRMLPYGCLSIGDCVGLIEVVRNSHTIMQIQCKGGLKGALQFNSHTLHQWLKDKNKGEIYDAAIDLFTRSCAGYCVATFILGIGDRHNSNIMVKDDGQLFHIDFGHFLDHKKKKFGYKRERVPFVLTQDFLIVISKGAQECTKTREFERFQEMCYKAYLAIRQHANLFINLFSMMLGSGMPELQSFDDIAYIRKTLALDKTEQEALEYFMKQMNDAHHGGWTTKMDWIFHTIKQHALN
Sequence (P27986 whole entry partner): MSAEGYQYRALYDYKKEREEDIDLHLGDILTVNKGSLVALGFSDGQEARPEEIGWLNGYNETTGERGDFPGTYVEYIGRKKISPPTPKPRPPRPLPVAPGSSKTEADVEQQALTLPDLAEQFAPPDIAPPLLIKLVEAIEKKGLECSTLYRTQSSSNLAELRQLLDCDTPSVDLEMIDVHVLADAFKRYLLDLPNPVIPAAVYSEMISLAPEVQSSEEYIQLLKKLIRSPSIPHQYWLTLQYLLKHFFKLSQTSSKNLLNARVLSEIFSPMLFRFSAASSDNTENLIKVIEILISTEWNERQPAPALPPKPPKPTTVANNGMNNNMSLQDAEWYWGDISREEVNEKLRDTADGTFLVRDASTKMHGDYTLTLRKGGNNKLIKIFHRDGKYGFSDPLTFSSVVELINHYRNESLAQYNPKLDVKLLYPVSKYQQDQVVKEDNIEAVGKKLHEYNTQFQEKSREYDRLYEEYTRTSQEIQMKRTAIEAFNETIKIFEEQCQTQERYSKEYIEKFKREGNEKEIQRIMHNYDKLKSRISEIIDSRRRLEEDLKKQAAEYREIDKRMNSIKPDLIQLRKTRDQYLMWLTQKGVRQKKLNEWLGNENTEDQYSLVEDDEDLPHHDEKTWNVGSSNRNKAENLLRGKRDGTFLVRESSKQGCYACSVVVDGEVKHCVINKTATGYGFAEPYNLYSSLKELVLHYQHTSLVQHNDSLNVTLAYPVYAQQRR
Measured Metric: log10 IC50 (log10 of the value in nM)
Please be aware that the numbers have been log10-transformed from IC50 in nM.

Worked set:
COc1ncc(-c2ccc3ncnc(N4CCN(C(=O)/C=C/C(C)=O)CC4)c3c2)cc1NS(=O)(=O)c1ccc(F)cc1
0.81
COC(=O)/C=C/C(=O)N1CCN(c2ncnc3ccc(-c4cnc(OC)c(NS(=O)(=O)c5ccc(F)cc5F)c4)cc23)CC1
0.99

Sample C=CC(=O)N1CC(N2CCN(c3ncnc4ccc(-c5cnc(OC)c(NS(=O)(=O)c6ccc(F)cc6F)c5)cc34)CC2)C1 ; log10 IC50 observed: 0.08

Value of log10 IC50 reported for the compound C=CC(=O)N1CCN(c2ncnc3ccc(-c4cnc(OC)c(NS(=O)(=O)c5ccc(F)cn5)c4)cc23)CC1 is 0.45

Reported log10 IC50 for C=C(OC)C(=O)N1CCN(c2ncnc3ccc(-c4cnc(OC)c(NS(=O)(=O)c5ccc(F)cc5F)c4)cc23)CC1 was 1.14

Entry C=C(F)C(=O)N1CCN(c2ncnc3ccc(-c4cnc(OC)c(NS(=O)(=O)c5c(F)cccc5F)c4)cc23)CC1 — recorded log10 IC50 = 0.40

# compound C=C1CCN(C2CN(c3ncnc4ccc(-c5cnc(OC)c(NS(=O)(=O)c6ccc(F)cc6F)c5)cc34)C2)C1=O ; its log10 IC50 = 0.70

----------
target: PI3Kα (Homo sapiens (Human), UniProt P42336); experiment: Inhibition of PI3Kα efficacy assay (ADP-Glo kinase assay); assay type: biochemical; details: Table 2; read-out: PI3Kα inhibitory activity (IC50)
Measured Metric: pIC50
Hey, just a heads up that pIC50 is the negative log base 10 of the concentration in molar.

C=C(F)C(=O)N1CCN(c2ncnc3ccc(-c4cnc(OC)c(NS(=O)(=O)c5ccc(F)cc5F)c4)cc23)CC1
8.48

The reported value for COc1ncc(-c2ccc3ncnc(N4CCN(C(=O)/C=C/S(C)(=O)=O)CC4)c3c2)cc1NS(=O)(=O)c1ccc(F)cc1F in terms of pIC50 is 9.11

response.value for COc1ncc(-c2ccc3ncnc(N4CCN(C(=O)C5=CC(=O)CCC5)CC4)c3c2)cc1NS(=O)(=O)c1c(F)cccc1F (field: pIC50) = 8.60

Noted for COc1ccc(-c2ccc3ncnc(N4CCN(C(=O)/C=C/C(C)=O)CC4)c3c2)cc1NS(=O)(=O)c1ccc(F)cc1F : its pIC50 reads 6.38

----------
Molecular target: KRAS^G12C-SOS1 (Homo sapiens (Human), UniProt P01116, G12C)
Sequence (P01116-2 other isoform, or with tags, fused parts or gaps G12C): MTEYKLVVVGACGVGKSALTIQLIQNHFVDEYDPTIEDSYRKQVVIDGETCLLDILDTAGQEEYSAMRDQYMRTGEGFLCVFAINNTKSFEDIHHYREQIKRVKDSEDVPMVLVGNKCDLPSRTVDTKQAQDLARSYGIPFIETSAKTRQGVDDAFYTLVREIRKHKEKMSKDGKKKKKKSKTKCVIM
Assay: HTRF KRAS G12C/SOS1 binding assay
Conditions: Table 5
Procedure: Initially, a 2 mM stock solution of the test compound (dissolved in DMSO) was serially diluted in five-fold concentrations using DMSO to obtain eight working solutions 1 (200×). […] Remove the plate and read on an HTRF® compatible reader, with the excitation light wavelength set at 337 nm and readings recorded at 620 nm and 665 nm. […] The inhibition rate was calculated using the following formula: […]
// reported pIC50 for each item listed
Lab note: report pIC50 as minus log10 of the concentration in molar units, number only.

Use the examples below as a reference point.
COc1ncc(-c2ccc3ncnc(N4CCN(C(=O)/C=C/C(C)=O)CC4)c3c2)cc1NS(=O)(=O)c1ccccc1C
6.46
COc1ncc(-c2ccc3ncnc(N4CC5CCC(C4)N5C(=O)/C=C/C(C)=O)c3c2)cc1NS(=O)(=O)c1sc(C)nc1C
6.95
COc1ncc(-c2ccc3ncnc(N4CCC5(CC4)CN(C(=O)/C=C/C(C)=O)C5)c3c2)cc1NS(=O)(=O)c1ccc(F)cc1F
6.62
COc1ncc(-c2ccc3ncnc(N4CCN(C(=O)/C=C/C(C)=O)C[C@@H]4C)c3c2)cc1NS(=O)(=O)c1ccc(F)cc1Cl
6.37
COc1ncc(-c2ccc3ncnc(N4CCN(C(=O)/C=C/C(C)=O)CC4)c3c2)cc1NS(=O)(=O)c1c(F)cccc1C#N
6.84

Just so you know, measured pIC50 for COc1ncc(-c2ccc3ncnc(C4CCN(C(=O)/C=C/C(C)=O)CC4)c3n2)cc1NS(=O)(=O)c1c(F)cccc1Cl came out at 6.95

----------
Target: PI3Kδ (Homo sapiens (Human), UniProt O00329)
Sequence (O00329 whole entry): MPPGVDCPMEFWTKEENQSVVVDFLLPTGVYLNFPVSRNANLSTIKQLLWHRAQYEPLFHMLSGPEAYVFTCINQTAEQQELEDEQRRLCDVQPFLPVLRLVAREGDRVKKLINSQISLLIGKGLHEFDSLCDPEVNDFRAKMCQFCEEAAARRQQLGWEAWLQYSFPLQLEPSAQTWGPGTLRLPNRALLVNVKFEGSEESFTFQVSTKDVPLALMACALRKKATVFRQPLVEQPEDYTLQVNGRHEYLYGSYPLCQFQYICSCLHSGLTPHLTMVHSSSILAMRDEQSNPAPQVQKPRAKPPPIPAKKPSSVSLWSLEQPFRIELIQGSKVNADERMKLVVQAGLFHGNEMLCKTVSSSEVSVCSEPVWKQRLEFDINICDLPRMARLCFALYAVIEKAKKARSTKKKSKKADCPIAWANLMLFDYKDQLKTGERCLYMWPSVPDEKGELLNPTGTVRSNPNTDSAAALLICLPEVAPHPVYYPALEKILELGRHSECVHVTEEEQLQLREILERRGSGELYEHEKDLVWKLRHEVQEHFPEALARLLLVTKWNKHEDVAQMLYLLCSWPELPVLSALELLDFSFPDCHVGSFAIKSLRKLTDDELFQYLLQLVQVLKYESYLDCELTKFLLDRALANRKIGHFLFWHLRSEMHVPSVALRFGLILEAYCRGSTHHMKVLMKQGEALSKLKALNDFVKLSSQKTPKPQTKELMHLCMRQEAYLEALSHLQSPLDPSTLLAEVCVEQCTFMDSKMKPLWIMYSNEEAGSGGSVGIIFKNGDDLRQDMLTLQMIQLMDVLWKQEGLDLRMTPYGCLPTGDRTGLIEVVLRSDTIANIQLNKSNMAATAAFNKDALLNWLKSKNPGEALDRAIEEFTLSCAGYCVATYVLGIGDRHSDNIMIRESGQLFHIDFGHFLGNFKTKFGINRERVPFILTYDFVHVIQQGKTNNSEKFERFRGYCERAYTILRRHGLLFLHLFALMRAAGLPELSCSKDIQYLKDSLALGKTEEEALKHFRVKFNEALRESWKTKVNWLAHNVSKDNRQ
Sequence (P27986 whole entry partner): as the sequence (P27986 whole entry partner) above
Test: Inhibition of PI3Kδ efficacy assay (ADP-Glo kinase assay)
Assay type: biochemical
Settings: Table 1; read-out: PI3Kδ inhibitory activity (IC50)
Description: Test Example 2: Inhibition of PI3Kδ Efficacy assay The ADP-Glo™ kinase assay was used to assess the inhibition of PI3Kδ with our compounds. The utilized proteins and assay reagents were obtained from the ADP-Glo™ Kinase Assay Kit (Promega). […] Luminescence values were recorded using a multi-mode microplate reader with luminescence channel settings, and the inhibitory rate was calculated using the following formula: [formula] […]
Measured Metric: pIC50
Keep it numeric: pIC50 is minus log10 of the concentration in mol/L.

Entry under test: C=CC(=O)N1CCN(c2nc(C#N)nc3ccc(-c4cnc(OC)c(NS(=O)(=O)c5ccc(F)cc5F)c4)cc23)CC1 . Its pIC50 was 6.47

The compound identified as C=CC(=O)N1CC2(CCN(c3ncnc4ccc(-c5cnc(OC)c(NS(=O)(=O)c6ccc(F)cc6F)c5)cc34)C2)C1 registered its pIC50 at 7.11

Reported pIC50 for C=CC(=O)N1CCN(c2ncnc3ccc(-c4cnc(OC)c(NS(=O)(=O)c5ccccc5)c4)cc23)CC1 was 8.20

The reported value for C=CC(=O)N1CCC(Nc2ncnc3ccc(-c4cnc(Cl)c(NS(=O)(=O)c5ccc(F)cc5F)c4)nc23)CC1 in terms of pIC50 is 7.38

----------
target: PI3Kδ (Homo sapiens (Human)); assay: Inhibition of PI3Kδ efficacy assay (ADP-Glo kinase assay); format: biochemical; conditions: Table 2; read-out: PI3Kδ inhibitory activity (IC50)
Strictly below 30 nM in IC50: t. Otherwise: f.

Some solved cases for reference:
CNc1ncc(-c2ccc3ncnc(N4CCN(C(=O)/C=C/C(C)=O)CC4)c3c2)cc1NS(=O)(=O)c1ccc(F)cc1F [Example 105]
f
COc1ncc(-c2ccc3ncnc(N4CCN(C(=O)/C=C/C(C)=O)CC4)c3c2)cc1NS(=O)(=O)c1ccc(F)cc1 [Example 92]
f

Prompt: Is it true that IC50 reported for COc1ncc(-c2ccc3ncnc(N4CC5CCC(C4)N5C(=O)/C=C/C(C)=O)c3c2)cc1NS(=O)(=O)c1ccc(F)cc1F [Example 58] is less than 30 nM?
Response: t

Prompt: Is the reported IC50 for COc1ncc(-c2ccc3ncnc(N4CCN(C(=O)C5=CC(=O)CCC5)CC4)c3c2)cc1NS(=O)(=O)c1ccc(F)cc1F [Example 72] strictly below 30 nM?
Response: t

Prompt: Given COc1ncc(-c2ccc3ncnc(N4CCN(C(=O)/C=C/C(C)=O)CC4)c3c2)cc1NS(=O)(=O)c1ccncc1F [Example 103] , is recorded IC50 strictly lower than 30 nM?
Response: f

----------
Reported IC50 values follow for various compounds
test system: NCI-H358-AMGR drug-resistant cell line; test: NCI-H358-AMGR drug-resistant cell proliferation inhibitory activity test; assay type: cell-based; conditions: NCI-H358-AMGR drug-resistant cells, 3 days incubation, CellTiter-Glo
Use nM as the unit, but write only the number.

COc1ncc(-c2ccc3ncnc(N4CCN(C(=O)/C=C/C(C)=O)CC4)c3c2)cc1NS(=O)(=O)c1ccc(C)cc1F
118

Now examine the next entry.
The compound identified as COc1ncc(-c2ccc3ncnc(N4CCC5(CN(C(=O)/C=C/C(C)=O)C5)C4)c3c2)cc1NS(=O)(=O)c1c(F)cccc1F registered its IC50 at 132

----------
Biological target: KRAS^G12C-SOS1 (Homo sapiens (Human), UniProt P01116, G12C)
Test: HTRF KRAS G12C/SOS1 binding assay
Settings: Table 5
Protocol: Initially, a 2 mM stock solution of the test compound (dissolved in DMSO) was serially diluted in five-fold concentrations using DMSO to obtain eight working solutions 1 (200×). […] Remove the plate and read on an HTRF® compatible reader, with the excitation light wavelength set at 337 nm and readings recorded at 620 nm and 665 nm. […] The inhibition rate was calculated using the following formula: […]
Measured Metric: IC50 (nM)
Please respond with the number in nM and leave the unit unwritten.

COc1ncc(-c2ccc3ncnc(N4CCN(C(=O)/C=C/C(C)=O)CC4)c3c2)cc1NS(=O)(=O)c1ccc(F)cc1Cl
249
COc1ncc(-c2ccc3ncnc(C4CCN(C(=O)/C=C/C(C)=O)CC4)c3c2)cc1NS(=O)(=O)c1c(F)cccc1Cl
188

The compound listed as CC(=O)/C=C/C(=O)N1CCN(c2ncnc3ccc(-c4cnc(Cl)c(NS(=O)(=O)c5ccc(F)cc5F)c4)cc23)CC1 has a reported IC50 of 521
